# TEST_DESCRIPTION: Protein binding in mouse plasma at 5 uM incubated for 4 hrs by rapid equilibrium dialysis based LC-MS/MS analysis
# Assay type: ADME, cell-free
# SETUP_CONDITIONS: read-out: PPB (converted)
REPORTED_METRIC: fraction unbound at 4 h, 5 µM

INSERT INTO assay_data (molecule_smiles, result) VALUES
  ('Cc1cc(F)ccc1Oc1cc(C(F)(F)F)ccc1C(=O)Nc1ccn(COP(=O)(O)O)c(=O)c1', 0.016),
  ('Cc1nc(N2CCCC(F)(F)CC2)c(C(=O)Nc2ccc3c(c2)C(=O)NC3)cc1Cl', 0.013);

====

# TEST_DESCRIPTION: Half-life in ICR mouse at 2 mg/kg, iv measured at 0.083 to 8 hrs by LC-MS/MS analysis
# Assay type: ADME, organism-based
# SETUP_CONDITIONS: in vivo, time 0.083-8 hrs
Overview of reported half-life across a group of compounds:
REPORTED_METRIC: half-life (min)

INSERT INTO results (molecule_smiles, reading_unit, numeric_readout) VALUES
  ('Cc1nc(N2CCCC(F)(F)CC2)c(C(=O)Nc2ccc3c(c2)C(=O)NC3)cc1Cl', 'min', 61.2),
  ('Cc1cc(F)ccc1Oc1cc(C(F)(F)F)ccc1C(=O)Nc1ccn(COP(=O)(O)O)c(=O)c1', 'min', 78);

====

Overview of reported Ratio across a group of molecules:
# ASSAYED_SYSTEM: Sodium channel protein type 10 subunit alpha (Homo sapiens, UniProt Q9Y5Y9)
# TEST_DESCRIPTION: Inhibition of human Nav1.8 expressed in HEK293 cells assessed as ratio of peak current magnitude after compound addition to control at 500 nM incubated at -80 mV holding potential by whole-cell patch-clamp technique
# Assay type: cell-based
# Sequence (Q9Y5Y9 whole entry, looked up): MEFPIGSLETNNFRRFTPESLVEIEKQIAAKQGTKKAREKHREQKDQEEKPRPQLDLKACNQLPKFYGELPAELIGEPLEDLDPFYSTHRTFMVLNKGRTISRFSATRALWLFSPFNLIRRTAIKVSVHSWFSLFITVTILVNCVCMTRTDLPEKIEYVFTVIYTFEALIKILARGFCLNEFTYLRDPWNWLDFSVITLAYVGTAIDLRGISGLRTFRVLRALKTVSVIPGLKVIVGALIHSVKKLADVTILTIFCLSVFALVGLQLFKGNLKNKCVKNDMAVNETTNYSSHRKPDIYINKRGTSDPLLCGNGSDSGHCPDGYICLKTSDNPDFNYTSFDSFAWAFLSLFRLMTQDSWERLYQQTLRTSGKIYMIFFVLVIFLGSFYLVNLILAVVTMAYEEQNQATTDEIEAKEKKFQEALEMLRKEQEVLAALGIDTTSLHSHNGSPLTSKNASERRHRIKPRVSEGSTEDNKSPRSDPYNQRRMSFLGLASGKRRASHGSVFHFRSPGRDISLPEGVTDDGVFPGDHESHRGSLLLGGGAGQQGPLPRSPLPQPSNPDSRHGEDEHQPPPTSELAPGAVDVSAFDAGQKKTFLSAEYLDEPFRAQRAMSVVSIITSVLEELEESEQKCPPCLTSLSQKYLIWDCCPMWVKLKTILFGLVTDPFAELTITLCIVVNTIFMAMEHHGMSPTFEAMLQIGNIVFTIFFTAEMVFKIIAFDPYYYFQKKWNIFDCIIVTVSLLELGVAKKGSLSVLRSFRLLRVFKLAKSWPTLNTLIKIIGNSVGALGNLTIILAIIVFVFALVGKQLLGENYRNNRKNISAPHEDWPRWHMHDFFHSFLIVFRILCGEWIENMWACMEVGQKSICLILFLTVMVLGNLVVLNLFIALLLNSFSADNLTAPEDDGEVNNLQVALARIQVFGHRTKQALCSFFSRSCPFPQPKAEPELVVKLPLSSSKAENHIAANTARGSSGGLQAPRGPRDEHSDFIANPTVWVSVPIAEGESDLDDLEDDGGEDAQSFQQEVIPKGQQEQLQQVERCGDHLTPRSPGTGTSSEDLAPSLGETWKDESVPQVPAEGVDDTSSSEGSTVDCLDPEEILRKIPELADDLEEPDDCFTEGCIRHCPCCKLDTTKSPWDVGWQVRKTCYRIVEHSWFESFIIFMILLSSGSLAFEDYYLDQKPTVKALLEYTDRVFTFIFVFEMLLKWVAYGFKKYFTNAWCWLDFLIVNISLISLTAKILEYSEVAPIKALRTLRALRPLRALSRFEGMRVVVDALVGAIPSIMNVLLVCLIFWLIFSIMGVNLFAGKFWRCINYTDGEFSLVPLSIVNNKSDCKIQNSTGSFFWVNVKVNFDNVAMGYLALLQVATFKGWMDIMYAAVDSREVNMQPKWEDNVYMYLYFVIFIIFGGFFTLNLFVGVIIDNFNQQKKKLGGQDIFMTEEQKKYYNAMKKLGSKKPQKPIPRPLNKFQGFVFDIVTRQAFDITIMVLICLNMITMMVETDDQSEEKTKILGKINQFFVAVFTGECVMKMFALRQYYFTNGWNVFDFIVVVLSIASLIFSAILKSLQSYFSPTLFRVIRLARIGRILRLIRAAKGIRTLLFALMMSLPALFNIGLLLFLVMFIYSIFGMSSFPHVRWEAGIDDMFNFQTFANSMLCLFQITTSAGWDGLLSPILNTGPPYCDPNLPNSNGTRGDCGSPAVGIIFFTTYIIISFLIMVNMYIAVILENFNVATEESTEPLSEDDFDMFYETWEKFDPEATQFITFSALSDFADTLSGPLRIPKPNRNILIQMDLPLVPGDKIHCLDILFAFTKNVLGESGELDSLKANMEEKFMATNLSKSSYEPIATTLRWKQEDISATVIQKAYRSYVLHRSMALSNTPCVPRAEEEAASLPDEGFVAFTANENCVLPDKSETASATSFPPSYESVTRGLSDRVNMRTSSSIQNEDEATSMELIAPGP
REPORTED_METRIC: Ratio

INSERT INTO measurements (molecule_smiles, numeric_readout) VALUES
  ('Cc1nc(N2CCCC(F)(F)CC2)c(C(=O)Nc2ccc3[nH][nH]c(=O)c3c2)cc1Cl', 0.22),
  ('O=C(Nc1ccc2[nH][nH]c(=O)c2c1)c1ccc(C(F)(F)F)cc1N1CCCC(F)(F)CC1', 0.59),
  ('Cc1cc(F)ccc1Oc1cc(C(F)(F)F)ccc1C(=O)Nc1ccn(COP(=O)(O)O)c(=O)c1', 0.11),
  ('Cc1cc(F)ccc1Oc1nc(C(F)(F)F)ccc1C(=O)Nc1ccc2[nH][nH]c(=O)c2c1', 0.91),
  ('Cc1cc(F)ccc1Oc1cc(C(F)(F)F)ccc1C(=O)Nc1ccc2[nH][nH]c(=O)c2c1', 0.72);

====

# ASSAYED_SYSTEM: Sodium channel protein type 10 subunit alpha (Homo sapiens)
# TEST_DESCRIPTION: Inhibition of Nav1.8 (unknown origin)
# Sequence (Q9Y5Y9 whole entry): as the sequence (Q9Y5Y9 whole entry, looked up) above
REPORTED_METRIC: IC50 (nM)

INSERT INTO measurements (molecule_smiles, numeric_readout) VALUES
  ('Cc1cc(F)ccc1Oc1cc(C(F)(F)F)ccc1C(=O)Nc1ccn(COP(=O)(O)O)c(=O)c1', 86);

====

Overview of reported half-life across a group of compounds:
# TEST_DESCRIPTION: Half-life in ICR mouse at 10 mg/kg, po measured at 0.5 to 24 hrs by LC-MS/MS analysis
# Format: ADME, organism-based
# SETUP_CONDITIONS: in vivo, time 0.5-24 hrs
REPORTED_METRIC: half-life (h)

INSERT INTO measurements (molecule_smiles, numeric_readout) VALUES
  ('Cc1cc(F)ccc1Oc1cc(C(F)(F)F)ccc1C(=O)Nc1ccn(COP(=O)(O)O)c(=O)c1', 5.56),
  ('Cc1nc(N2CCCC(F)(F)CC2)c(C(=O)Nc2ccc3c(c2)C(=O)NC3)cc1Cl', 2.18);

The reported measurements were obtained from ChEMBL document CHEMBL5325430.
